pKi values by entry
test-system: dog NPC1L1 (Canis lupus familiaris)
Sequence (A0A8I3RZG1 entry or part of it): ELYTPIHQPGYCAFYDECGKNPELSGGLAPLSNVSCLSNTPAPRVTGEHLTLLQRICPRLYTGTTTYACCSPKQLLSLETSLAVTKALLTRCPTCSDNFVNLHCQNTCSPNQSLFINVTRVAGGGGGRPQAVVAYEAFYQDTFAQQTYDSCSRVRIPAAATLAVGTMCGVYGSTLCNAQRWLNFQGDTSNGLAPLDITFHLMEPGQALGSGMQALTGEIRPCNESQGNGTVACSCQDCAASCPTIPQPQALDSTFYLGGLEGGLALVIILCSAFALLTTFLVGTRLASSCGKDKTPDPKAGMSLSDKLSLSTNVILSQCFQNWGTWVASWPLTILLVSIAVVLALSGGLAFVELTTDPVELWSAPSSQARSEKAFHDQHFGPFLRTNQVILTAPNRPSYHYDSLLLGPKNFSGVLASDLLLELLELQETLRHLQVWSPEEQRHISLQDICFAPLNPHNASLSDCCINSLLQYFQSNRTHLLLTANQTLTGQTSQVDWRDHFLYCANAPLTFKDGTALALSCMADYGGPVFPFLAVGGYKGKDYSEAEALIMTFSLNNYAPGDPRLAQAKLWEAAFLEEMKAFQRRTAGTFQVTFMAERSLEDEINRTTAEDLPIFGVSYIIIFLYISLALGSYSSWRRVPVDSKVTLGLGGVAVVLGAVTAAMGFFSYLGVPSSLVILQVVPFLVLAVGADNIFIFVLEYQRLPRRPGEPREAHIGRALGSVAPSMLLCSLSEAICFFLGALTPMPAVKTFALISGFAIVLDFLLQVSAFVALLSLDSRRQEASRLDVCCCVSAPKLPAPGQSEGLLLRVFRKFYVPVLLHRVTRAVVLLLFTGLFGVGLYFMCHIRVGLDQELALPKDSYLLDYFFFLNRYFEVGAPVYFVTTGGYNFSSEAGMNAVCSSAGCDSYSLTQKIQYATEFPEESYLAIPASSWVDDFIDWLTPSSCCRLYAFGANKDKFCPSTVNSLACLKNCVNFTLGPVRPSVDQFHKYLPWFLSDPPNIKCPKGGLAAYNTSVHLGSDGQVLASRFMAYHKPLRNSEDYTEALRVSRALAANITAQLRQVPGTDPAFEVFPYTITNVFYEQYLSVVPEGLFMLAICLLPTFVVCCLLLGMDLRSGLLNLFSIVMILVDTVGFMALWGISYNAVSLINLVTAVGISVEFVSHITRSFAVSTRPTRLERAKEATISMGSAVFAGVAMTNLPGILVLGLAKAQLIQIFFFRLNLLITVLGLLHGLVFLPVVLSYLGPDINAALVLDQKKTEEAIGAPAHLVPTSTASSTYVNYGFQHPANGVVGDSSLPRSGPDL
pKi: −log10 of the molar value.
experimental-readout: pKi

1. O=C1[C@H](CC[C@H](O)c2ccc(F)cc2)[C@@H](c2ccc(O)cc2)N1c1ccc(F)cc1 | 7.67
2. COC(=O)[C@H]1O[C@@H](Oc2ccc([C@@H]3[C@@H](CC[C@H](O)c4ccc(F)cc4)C(=O)N3c3ccc(C#CCNS(C)(=O)=O)cc3)cc2)[C@H](O)[C@@H](O)[C@@H]1O | 9.01
3. CS(=O)(=O)NCCCc1ccc(N2C(=O)[C@H](CC[C@H](O)c3ccc(F)cc3)[C@H]2c2ccc(O[C@@H]3O[C@H](C(=O)O)[C@@H](O)[C@H](O)[C@H]3O)cc2)cc1 | 9.00
4. O=C(O)[C@H]1O[C@@H](Oc2ccc([C@@H]3[C@@H](CC[C@H](O)c4ccc(F)cc4)C(=O)N3c3ccc(F)cc3)cc2)[C@H](O)[C@@H](O)[C@@H]1O [EZE-gluc, ezetimibe glucuronide] | 8.26

----------
test-system: human NPC1L1 (Homo sapiens, UniProt Q9UHC9)
Construct: expressed in transfected cells
Sequence (Q9UHC9 22-1359): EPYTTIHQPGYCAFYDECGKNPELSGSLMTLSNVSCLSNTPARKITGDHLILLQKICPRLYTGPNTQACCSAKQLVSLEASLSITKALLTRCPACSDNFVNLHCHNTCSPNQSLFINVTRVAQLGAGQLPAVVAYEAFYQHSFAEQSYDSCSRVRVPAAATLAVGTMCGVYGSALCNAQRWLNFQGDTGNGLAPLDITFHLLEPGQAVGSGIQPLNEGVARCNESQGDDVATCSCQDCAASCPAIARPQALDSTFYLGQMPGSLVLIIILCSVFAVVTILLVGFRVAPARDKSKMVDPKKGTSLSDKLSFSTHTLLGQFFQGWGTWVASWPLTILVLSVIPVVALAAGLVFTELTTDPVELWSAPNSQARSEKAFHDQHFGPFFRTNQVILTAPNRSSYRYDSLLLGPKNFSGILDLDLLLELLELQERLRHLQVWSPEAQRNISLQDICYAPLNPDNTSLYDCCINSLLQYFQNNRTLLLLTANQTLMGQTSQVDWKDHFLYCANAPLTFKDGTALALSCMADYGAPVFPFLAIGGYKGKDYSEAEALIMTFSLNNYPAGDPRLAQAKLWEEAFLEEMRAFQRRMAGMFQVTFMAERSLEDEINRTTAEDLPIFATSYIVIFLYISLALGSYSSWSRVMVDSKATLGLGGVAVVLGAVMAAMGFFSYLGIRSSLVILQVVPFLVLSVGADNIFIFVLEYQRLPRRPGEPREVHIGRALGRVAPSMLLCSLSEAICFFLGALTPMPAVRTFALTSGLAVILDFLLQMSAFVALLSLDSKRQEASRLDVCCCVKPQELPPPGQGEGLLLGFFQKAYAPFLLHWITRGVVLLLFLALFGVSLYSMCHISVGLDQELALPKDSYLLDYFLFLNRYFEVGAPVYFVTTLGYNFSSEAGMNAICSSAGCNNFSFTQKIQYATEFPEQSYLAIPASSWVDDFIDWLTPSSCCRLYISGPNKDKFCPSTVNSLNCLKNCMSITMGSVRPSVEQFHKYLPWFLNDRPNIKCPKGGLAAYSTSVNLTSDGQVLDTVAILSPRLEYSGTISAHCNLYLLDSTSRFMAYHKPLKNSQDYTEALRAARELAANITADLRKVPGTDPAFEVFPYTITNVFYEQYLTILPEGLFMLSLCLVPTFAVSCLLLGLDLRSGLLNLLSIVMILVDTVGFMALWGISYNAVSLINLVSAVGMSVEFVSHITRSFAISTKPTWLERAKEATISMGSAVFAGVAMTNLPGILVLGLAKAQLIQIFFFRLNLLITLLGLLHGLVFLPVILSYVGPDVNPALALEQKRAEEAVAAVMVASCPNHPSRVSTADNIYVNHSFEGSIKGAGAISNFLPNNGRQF
assay-method-text: [3H]cholesterol flux into hNPC1L1/MDCKII-Flp cells
Format: cell-based
protocol-conditions: hNPC1L1/MDCKII-Flp, FIG. 7C; read-out: IC50 inhibition of [3H]cholesterol uptake
pIC50: −log10 of the molar value.
experimental-readout: pIC50

1) COC(=O)[C@H]1O[C@@H](Oc2ccc([C@@H]3[C@@H](CC[C@H](O)c4ccc(F)cc4)C(=O)N3c3ccc(C#CCNS(C)(=O)=O)cc3)cc2)[C@H](O)[C@@H](O)[C@@H]1O | 7.99

----------
IC50 values by entry
test-system: dog NPC1L1 endogenously expressed in MDCKII cells (Canis lupus familiaris, UniProt A0A8I3RZG1)
experimental-readout: IC50 (nM)

1) CS(=O)(=O)NCCCc1ccc(N2C(=O)[C@H](CC[C@H](O)c3ccc(F)cc3)[C@H]2c2ccc(O[C@@H]3O[C@H](C(=O)O)[C@@H](O)[C@H](O)[C@H]3O)cc2)cc1 | 2.86
2) O=C1[C@H](CC[C@H](O)c2ccc(F)cc2)[C@@H](c2ccc(O)cc2)N1c1ccc(F)cc1 | 126
3) O=C(O)[C@H]1O[C@@H](Oc2ccc([C@@H]3[C@@H](CC[C@H](O)c4ccc(F)cc4)C(=O)N3c3ccc(F)cc3)cc2)[C@H](O)[C@@H](O)[C@@H]1O [EZE-gluc, ezetimibe glucuronide] | 24
4) COC(=O)[C@H]1O[C@@H](Oc2ccc([C@@H]3[C@@H](CC[C@H](O)c4ccc(F)cc4)C(=O)N3c3ccc(C#CCNS(C)(=O)=O)cc3)cc2)[C@H](O)[C@@H](O)[C@@H]1O | 3.02

----------
test-system: dog NPC1L1 endogenously expressed in MDCKII cells (Canis lupus familiaris, UniProt A0A8I3RZG1)
pKd: −log10 of the molar value.
experimental-readout: pKd

1. CS(=O)(=O)NCCCc1ccc(N2C(=O)[C@H](CC[C@H](O)c3ccc(F)cc3)[C@H]2c2ccc(O[C@@H]3O[C@H](C(=O)O)[C@@H](O)[C@H](O)[C@H]3O)cc2)cc1 | 9.23

----------
test-system: dog NPC1L1 endogenously expressed in MDCKII cells (Canis lupus familiaris, UniProt A0A8I3RZG1)
pKi: −log10 of the molar value.
pKi values by entry
experimental-readout: pKi

1. O=C(O)[C@H]1O[C@@H](Oc2ccc([C@@H]3[C@@H](CC[C@H](O)c4ccc(F)cc4)C(=O)N3c3ccc(F)cc3)cc2)[C@H](O)[C@@H](O)[C@@H]1O [EZE-gluc, ezetimibe glucuronide] | 8.45
2. COC(=O)[C@H]1O[C@@H](Oc2ccc([C@@H]3[C@@H](CC[C@H](O)c4ccc(F)cc4)C(=O)N3c3ccc(C#CCNS(C)(=O)=O)cc3)cc2)[C@H](O)[C@@H](O)[C@@H]1O | 9.48
3. CS(=O)(=O)NCCCc1ccc(N2C(=O)[C@H](CC[C@H](O)c3ccc(F)cc3)[C@H]2c2ccc(O[C@@H]3O[C@H](C(=O)O)[C@@H](O)[C@H](O)[C@H]3O)cc2)cc1 | 9.47
4. O=C1[C@H](CC[C@H](O)c2ccc(F)cc2)[C@@H](c2ccc(O)cc2)N1c1ccc(F)cc1 | 7.85

----------
test-system: rat NPC1L1 (Rattus norvegicus, UniProt Q6T3U3)
Construct: expressed in transfected cells
assay-method-text: [3H]AS binding to rNPC1L1/HEK293 cells (saturation, kinetics, competition, acid wash)
protocol-conditions: 5.36 nM [3H]AS, 4 h, 37° C.; read-out: IC50 inhibition of [3H]AS binding
IC50 values by entry
experimental-readout: IC50 (nM)

1. O=C(O)[C@H]1O[C@@H](Oc2ccc([C@@H]3[C@@H](CC[C@H](O)c4ccc(F)cc4)C(=O)N3c3ccc(F)cc3)cc2)[C@H](O)[C@@H](O)[C@@H]1O [EZE-gluc, ezetimibe glucuronide] | 182
2. O=C1[C@H](CC[C@H](O)c2ccc(F)cc2)[C@@H](c2ccc(O)cc2)N1c1ccc(F)cc1 | 398
3. COC(=O)[C@H]1O[C@@H](Oc2ccc([C@@H]3[C@@H](CC[C@H](O)c4ccc(F)cc4)C(=O)N3c3ccc(C#CCNS(C)(=O)=O)cc3)cc2)[C@H](O)[C@@H](O)[C@@H]1O | 6.61
4. CS(=O)(=O)NCCCc1ccc(N2C(=O)[C@H](CC[C@H](O)c3ccc(F)cc3)[C@H]2c2ccc(O[C@@H]3O[C@H](C(=O)O)[C@@H](O)[C@H](O)[C@H]3O)cc2)cc1 | 5.25

----------
test-system: human NPC1L1 (Homo sapiens)
Construct: expressed in transfected cells
assay-method-text: [3H]cholesterol flux into hNPC1L1/MDCKII-Flp cells
Type: cell-based
protocol-conditions: hNPC1L1/MDCKII-Flp, FIG. 7D; read-out: IC50 block of [3H]cholesterol flux
IC50 values by entry
experimental-readout: IC50 (nM)

1) COC(=O)[C@H]1O[C@@H](Oc2ccc([C@@H]3[C@@H](CC[C@H](O)c4ccc(F)cc4)C(=O)N3c3ccc(C#CCNS(C)(=O)=O)cc3)cc2)[C@H](O)[C@@H](O)[C@@H]1O | 7
2) O=C(O)[C@H]1O[C@@H](Oc2ccc([C@@H]3[C@@H](CC[C@H](O)c4ccc(F)cc4)C(=O)N3c3ccc(F)cc3)cc2)[C@H](O)[C@@H](O)[C@@H]1O [EZE-gluc, ezetimibe glucuronide] | 300

Just for reference, patent US20100184094A1 is where these values come from.
